# credit: paper PMC10967270

test: Colistin concentration in epithelial lining fluid (BALF, urea-corrected) after CMS nebulization; assay type: in vivo, human; conditions: human, epithelial lining fluid, inhaled or intranasal; at 3 h; median concentrations; nebulized CMS 0.9375 MIU; read-out: Colistin concentration in ELF relative to plasma
Positions of bridges follow the written chain, without caps; N, C: chain ends. Non-standard residues stand in square brackets, D forms with d. Residues, ends and D or L forms follow the SMILES beside them. *: point of attachment. X1 = CC[C@H](C)CCCCC(=O)*; Dab = NCC[C@H](N)C(=O)O

compound	Kp at 3 h
CC[C@H](C)CCCCC(=O)N[C@@H](CCN)C(=O)N[C@H](C(=O)N[C@@H](CCN)C(=O)N[C@H]1CCNC(=O)[C@H]([C@@H](C)O)NC(=O)[C@H](CCN)NC(=O)[C@H](CCN)NC(=O)[C@H](CC(C)C)NC(=O)[C@@H](CC(C)C)NC(=O)[C@H](CCN)NC1=O)[C@@H](C)O [colistin] (X1-[Dab]T[Dab][Dab][Dab][dL]L[Dab][Dab]T; lactam 4-C)	~408

---

assay: Colistin concentration in plasma after CMS nebulization; assay type: in vivo; conditions: human, inhaled or intranasal, 2 h after start (time by position in Figure 1c), CMS 0.9375 MIU nebulized over 30 min, LC-MS/MS, 20 patients, read-out: Median colistin concentration in plasma
Positions of bridges follow the written chain, without caps; N, C: chain ends. Non-standard residues stand in square brackets, D forms with d. Residues, ends and D or L forms follow the SMILES beside them. *: point of attachment. X1 = CC[C@H](C)CCCCC(=O)*; Dab = NCC[C@H](N)C(=O)O
attribute measured: level at 2 h (ng/mL)

compound	endpoint unit	test result
CC[C@H](C)CCCCC(=O)N[C@@H](CCN)C(=O)N[C@H](C(=O)N[C@@H](CCN)C(=O)N[C@H]1CCNC(=O)[C@H]([C@@H](C)O)NC(=O)[C@H](CCN)NC(=O)[C@H](CCN)NC(=O)[C@H](CC(C)C)NC(=O)[C@@H](CC(C)C)NC(=O)[C@H](CCN)NC1=O)[C@@H](C)O [colistin] (X1-[Dab]T[Dab][Dab][Dab][dL]L[Dab][Dab]T; lactam 4-C)	ng/mL	29.8

---

assay: Colistin concentration in plasma after CMS nebulization; type: in vivo; details: human, inhaled or intranasal, 3 h after start (time by position in Figure 1c), CMS 0.9375 MIU nebulized over 30 min, LC-MS/MS, 20 patients, read-out: Median colistin concentration in plasma
Positions of bridges follow the written chain, without caps; N, C: chain ends. Non-standard residues stand in square brackets, D forms with d. Residues, ends and D or L forms follow the SMILES beside them. *: point of attachment. X1 = CC[C@H](C)CCCCC(=O)*; Dab = NCC[C@H](N)C(=O)O
attribute measured: level at 3 h

compound	test result
CC[C@H](C)CCCCC(=O)N[C@@H](CCN)C(=O)N[C@H](C(=O)N[C@@H](CCN)C(=O)N[C@H]1CCNC(=O)[C@H]([C@@H](C)O)NC(=O)[C@H](CCN)NC(=O)[C@H](CCN)NC(=O)[C@H](CC(C)C)NC(=O)[C@@H](CC(C)C)NC(=O)[C@H](CCN)NC1=O)[C@@H](C)O [colistin] (X1-[Dab]T[Dab][Dab][Dab][dL]L[Dab][Dab]T; lactam 4-C)	37.7 ng/mL
